TESTED_ON: PI3Kδ (p110δ/p85α) (Homo sapiens)
ASSAY_PROTOCOL: PI3Kδ scintillation proximity assay
RUN_CONDITIONS: 20 μM ATP, 4 nM PI3Kδ
Where a name gives a salt, the structure may show the parent alone.
METRIC: IC50

Illustrative cases are given below, each with its answer.
- Cc1c(Cl)cc(C(C)Nc2ncnc3[nH]cnc23)c(-c2cccc(F)c2)c1[N+](=O)[O-] (stereo not shown): 0.1 to 0.25 µM
- COc1ncc(-c2cc(Cl)cc(C(C)Nc3ncnc4[nH]cnc34)c2-c2cc(F)cc(F)c2)cn1 (stereo not shown): < 0.05 µM
- COc1c(C(C)Nc2ncnc3[nH]cnc23)cc(Cl)c(C)c1C1CN(S(C)(=O)=O)C1 (stereo not shown) [Example 169, trifluoroacetate]: < 0.05 µM
- CCOc1c(C(C)Nc2ncnc3[nH]cnc23)cc(C)c(C#N)c1-c1cncc(S(C)(=O)=O)c1 (stereo not shown) [Example 186, bis(2,2,2-trifluoroacetate)]: < 0.05 µM
- Cc1c(Cl)cc(C(C)Nc2ncnc3[nH]cnc23)c(OCCN2CCOCC2)c1-c1cncc(Cl)c1 (stereo not shown): < 0.05 µM

input: // lookup IC50 for COc1c(C(C)Nc2ncnc3[nH]cnc23)cc(Cl)c(C)c1C1CN(C(C)C)C(=O)O1 (stereo not shown) [Example 189, trifluoroacetate]
output: < 0.05 µM

input: // lookup IC50 for COc1c(C(C)Nc2ncnc3[nH]cnc23)cc(Cl)c(C)c1-c1cncc(Cl)c1 (stereo not shown)
output: < 0.05 µM

input: // lookup IC50 for COc1c(C(C)Nc2ncnc3[nH]cnc23)cc(Cl)c(C)c1-c1ccc(OC(F)(F)F)cc1 (stereo not shown)
output: 0.25 to 0.5 µM

input: // lookup IC50 for COc1c(C(C)Nc2ncnc3[nH]cnc23)cc(Cl)c(Cl)c1C1CN(CCO)C1 (stereo not shown) [Example 196, bis(trifluoroacetate)]
output: < 0.05 µM

###

TESTED_ON: PI3Kδ (p110δ/p85α) (Homo sapiens)
Construct: purchased Millipore (Bedford, Mass.)
ASSAY_PROTOCOL: PI3Kδ scintillation proximity assay
Format: biochemical
RUN_CONDITIONS: 20 μM ATP, 4 nM PI3Kδ
pIC50: −log10 of the molar value.
METRIC: pIC50

• COc1cccc(-c2c(C)c(Cl)cc(C(C)Nc3ncnc4[nH]cnc34)c2OC)c1 (stereo not shown) [Example 103] = > 7.30
• COc1ccc(-c2cc(Cl)cc(C(C)Nc3ncnc4[nH]cnc34)c2OC)cn1 (stereo not shown) [Example 148] = 7.00 to 7.30
• COc1c(C(C)Nc2ncnc3[nH]cnc23)cc(Cl)c(C)c1-c1ccc(-n2cccn2)cc1 (stereo not shown) [Example 43] = > 7.30

Proceed to the following item.
input: // lookup pIC50 for COc1c(C(C)Nc2ncnc3[nH]cnc23)cc(Cl)c(C)c1-c1ccnc(Cl)c1 (stereo not shown) [Example 98]
output: > 7.30

###

The following compounds are listed with their measured pIC50 values.
TESTED_ON: PI3Kδ (p110δ/p85α) (Homo sapiens)
ASSAY_PROTOCOL: PI3Kδ scintillation proximity assay
RUN_CONDITIONS: 20 μM ATP, 4 nM PI3Kδ
pIC50: −log10 of the molar value.

• CC(Nc1ncnc2[nH]cnc12)c1cc(Cl)cc(-c2cnc(N)nc2)c1-c1cc(F)cc(F)c1 (stereo not shown) = > 7.30
• COc1c(C(C)Nc2ncnc3[nH]cnc23)cc(Cl)c(C)c1-c1ccc(OC2CCOCC2)nc1 (stereo not shown) = > 7.30
• CC(Nc1ncnc2[nH]cnc12)c1cc(Cl)c(CC#N)c(C#N)c1-c1cccc(F)c1 (stereo not shown) = 6.00 to 6.30

Proceed to the following item.
input: // lookup pIC50 for CCC(Nc1ncnc2[nH]cnc12)c1cc(Cl)c(C)c(-c2cncc(F)c2)c1OC (stereo not shown) [Example 181, bis(2,2,2-trifluoroacetate)]
output: > 7.30

###

TESTED_ON: PI3Kδ (p110δ/p85α) (Homo sapiens, UniProt O00329)
Sequence (O00329 whole entry, species assumed): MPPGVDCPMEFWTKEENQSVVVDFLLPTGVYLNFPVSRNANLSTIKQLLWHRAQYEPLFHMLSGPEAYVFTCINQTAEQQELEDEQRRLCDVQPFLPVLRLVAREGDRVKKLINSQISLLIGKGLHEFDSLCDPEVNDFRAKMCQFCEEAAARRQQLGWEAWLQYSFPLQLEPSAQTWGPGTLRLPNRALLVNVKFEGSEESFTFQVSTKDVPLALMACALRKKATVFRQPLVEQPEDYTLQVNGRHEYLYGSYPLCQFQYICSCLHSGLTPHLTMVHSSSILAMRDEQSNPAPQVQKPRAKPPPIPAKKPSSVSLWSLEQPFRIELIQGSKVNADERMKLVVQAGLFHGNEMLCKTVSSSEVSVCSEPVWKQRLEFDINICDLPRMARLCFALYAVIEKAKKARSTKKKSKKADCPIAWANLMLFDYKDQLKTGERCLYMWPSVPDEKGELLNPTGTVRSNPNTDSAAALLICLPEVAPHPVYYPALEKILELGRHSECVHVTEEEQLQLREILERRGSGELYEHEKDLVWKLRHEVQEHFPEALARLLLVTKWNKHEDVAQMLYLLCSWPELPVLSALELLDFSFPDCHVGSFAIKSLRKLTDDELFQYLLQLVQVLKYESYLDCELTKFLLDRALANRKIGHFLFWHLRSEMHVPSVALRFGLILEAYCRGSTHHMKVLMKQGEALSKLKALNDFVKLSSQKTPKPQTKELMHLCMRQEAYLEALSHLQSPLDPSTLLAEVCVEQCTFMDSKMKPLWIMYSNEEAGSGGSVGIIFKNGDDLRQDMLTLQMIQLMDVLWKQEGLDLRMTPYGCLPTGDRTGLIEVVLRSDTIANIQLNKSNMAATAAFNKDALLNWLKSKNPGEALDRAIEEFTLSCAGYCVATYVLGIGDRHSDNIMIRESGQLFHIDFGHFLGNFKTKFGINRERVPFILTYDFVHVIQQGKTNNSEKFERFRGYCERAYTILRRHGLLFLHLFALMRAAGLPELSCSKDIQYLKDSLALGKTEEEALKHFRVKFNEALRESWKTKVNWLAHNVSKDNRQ
Sequence (P27986 whole entry partner, species assumed): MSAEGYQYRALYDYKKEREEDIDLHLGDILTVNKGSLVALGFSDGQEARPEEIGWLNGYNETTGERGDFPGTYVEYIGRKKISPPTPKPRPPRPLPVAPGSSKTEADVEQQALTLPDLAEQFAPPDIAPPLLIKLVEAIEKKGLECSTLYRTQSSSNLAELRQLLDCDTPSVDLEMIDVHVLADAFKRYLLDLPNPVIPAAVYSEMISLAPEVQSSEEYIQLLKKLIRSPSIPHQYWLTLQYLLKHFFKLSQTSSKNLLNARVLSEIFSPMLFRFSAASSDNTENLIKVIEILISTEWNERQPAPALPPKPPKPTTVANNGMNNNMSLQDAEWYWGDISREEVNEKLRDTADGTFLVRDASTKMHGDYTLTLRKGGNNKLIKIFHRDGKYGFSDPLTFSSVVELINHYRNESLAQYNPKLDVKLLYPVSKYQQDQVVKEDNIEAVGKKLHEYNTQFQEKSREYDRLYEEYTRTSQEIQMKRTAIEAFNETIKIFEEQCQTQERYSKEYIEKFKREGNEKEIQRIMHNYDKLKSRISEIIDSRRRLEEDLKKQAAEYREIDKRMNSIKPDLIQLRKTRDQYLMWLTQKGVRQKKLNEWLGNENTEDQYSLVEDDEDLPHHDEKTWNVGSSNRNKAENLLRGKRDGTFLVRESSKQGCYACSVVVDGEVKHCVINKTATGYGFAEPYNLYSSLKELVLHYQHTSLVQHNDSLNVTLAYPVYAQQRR
ASSAY_PROTOCOL: PI3Kδ scintillation proximity assay
RUN_CONDITIONS: 20 μM ATP, 4 nM PI3Kδ
METRIC: IC50

Illustrative cases are given below, each with its answer.
- COc1c(C(C)Nc2ncnc3[nH]cnc23)cc(Cl)c(C)c1-c1cncc(F)c1 (stereo not shown) [Example 108]: < 50 nM
- COc1c(C(C)Nc2ncnc3[nH]cnc23)cc(Cl)c(C)c1-c1ccc(N2CCOCC2)cc1 (stereo not shown) [Example 88]: < 50 nM
- COc1c(C(C)Nc2ncnc3[nH]cnc23)cc(Cl)c(C)c1-c1ccc(F)c(C(=O)N(C)C)c1 (stereo not shown) [Example 94]: < 50 nM
- COc1ncc(-c2c(C)c(Cl)cc(C(C)Nc3ncnc4[nH]cnc34)c2OCCN2CCOCC2)cc1F (stereo not shown) [Example 160]: < 50 nM
- Cc1c(Cl)cc(C(C)Nc2ncnc3[nH]cnc23)c(OCCN2CCOCC2)c1-c1ccnn1C (stereo not shown) [Example 152]: < 50 nM

input: Can you look up IC50 on PI3Kδ (p110δ/p85α) (Homo sapiens, UniProt O00329) for CCOc1c(C(C)Nc2ncnc3[nH]cnc23)cc(Cl)c(C#N)c1C1CN(C(C)C)C1 (single isomer, unassigned) [Example 214, bis(trifluoroacetate)] ?
output: < 50 nM

input: Can you look up IC50 on PI3Kδ (p110δ/p85α) (Homo sapiens, UniProt O00329) for COc1c(C(C)Nc2ncnc3[nH]cnc23)cc(F)c(C)c1-c1ccc(C(=O)NC2CC2)cc1 (stereo not shown) [Example 120] ?
output: 50 to 100 nM

###

The following molecules are listed with their measured IC50 values.
TESTED_ON: PI3Kδ (p110δ/p85α) (Homo sapiens, UniProt O00329)
ASSAY_PROTOCOL: PI3Kδ scintillation proximity assay
RUN_CONDITIONS: 20 μM ATP, 4 nM PI3Kδ
Protocol: Example A: PI3Kδ Scintillation Proximity Assay Materials: [γ-^33P]ATP (10 mCi/mL) was purchased from Perkin-Elmer (Waltham, Mass.). […] The kinase reaction was conducted in polystyrene 384-well matrix white plate from Thermo Fisher Scientific in a final volume of 25 μL. […] After the plate sealing, plates were shaken overnight at room temperature and centrifuged at 1800 rpm for 10 minutes, the radioactivity of the product was determined by scintillation counting on Topcount (Perkin-Elmer). […]

Illustrative cases are given below, each with its answer.
• COc1ncc(-c2c(C)c(Cl)cc(C(C)Nc3ncnc4[nH]cnc34)c2OC)cn1 (centres unmarked) = < 50 nM
• CCC(Nc1ncnc2[nH]cnc12)c1cc(Cl)c(C)c(-c2cncc(S(C)(=O)=O)c2)c1OC (centres unmarked) [Example 182, bis(2,2,2-trifluoroacetate)] = < 50 nM
• COc1c(C(C)Nc2ncnc3[nH]cnc23)cc(Cl)c(C)c1-c1cc(F)cc(Cl)c1 (centres unmarked) = 250 to 500 nM

input: // lookup IC50 for CCOc1c(C(C)Nc2ncnc3[nH]cnc23)cc(C#N)c(F)c1-c1cncc(S(C)(=O)=O)c1 (centres unmarked) [Example 212, bis(trifluoroacetate)]
output: < 50 nM

input: // lookup IC50 for COc1c(C(C)Nc2ncnc3[nH]cnc23)cc(Cl)c(Cl)c1C1CN(CC#N)C1 (centres unmarked) [Example 206, bis(trifluoroacetate)]
output: < 50 nM

input: // lookup IC50 for CCOc1cccc(-c2c(C)c(Cl)cc(C(C)Nc3ncnc4[nH]cnc34)c2OC)c1 (centres unmarked)
output: 50 to 100 nM

input: // lookup IC50 for COc1ccc(-c2c(C)c(Cl)cc(C(C)Nc3ncnc4[nH]cnc34)c2OC)cc1C (centres unmarked)
output: 100 to 250 nM

input: // lookup IC50 for COc1c(C(C)Nc2ncnc3[nH]cnc23)cc(Cl)c(C)c1-c1cccc(Cl)c1 (centres unmarked)
output: 50 to 100 nM

input: // lookup IC50 for COc1c(C(C)Nc2ncnc3[nH]cnc23)cc(Cl)c(C)c1N1CCCC1=O (centres unmarked)
output: 250 to 500 nM

###

TESTED_ON: PI3Kδ (p110δ/p85α) (Homo sapiens)
ASSAY_PROTOCOL: PI3Kδ scintillation proximity assay
RUN_CONDITIONS: 20 μM ATP, 4 nM PI3Kδ
Protocol: Example A: PI3Kδ Scintillation Proximity Assay Materials: [γ-^33P]ATP (10 mCi/mL) was purchased from Perkin-Elmer (Waltham, Mass.). […] The kinase reaction was conducted in polystyrene 384-well matrix white plate from Thermo Fisher Scientific in a final volume of 25 μL. […] After the plate sealing, plates were shaken overnight at room temperature and centrifuged at 1800 rpm for 10 minutes, the radioactivity of the product was determined by scintillation counting on Topcount (Perkin-Elmer). […]
Structures can show the parent of a compound that is named as a salt.
METRIC: IC50

- COc1c(C(C)Nc2ncnc3[nH]cnc23)cc(Cl)c(C)c1-c1ccc(C(=O)N2CCCC2)c(F)c1 (stereo not drawn) [Example 66]: < 50 nM
- CCOc1cccc(-c2c(C)c(F)cc(C(C)Nc3ncnc4[nH]cnc34)c2OC)c1 (stereo not drawn) [Example 119]: 100 to 250 nM
- COc1c(C(C)Nc2ncnc3[nH]cnc23)cc(Cl)c(C)c1-c1ccc(NC(C)=O)cc1 (stereo not drawn) [Example 27]: < 50 nM
- COc1c(C(C)Nc2ncnc3[nH]cnc23)cc(Cl)c(C)c1-c1cccc(C(=O)N(C)C)n1 (stereo not drawn) [Example 177, bis(2,2,2-trifluoroacetate)]: < 50 nM
- Cc1c(Cl)cc(C(C)Nc2ncnc3[nH]cnc23)c(-c2cc(F)cc(F)c2)c1-c1cn[nH]c1 (stereo not drawn) [Example 106]: < 50 nM
- COc1cncc(-c2c(C)c(Cl)cc(C(C)Nc3ncnc4[nH]cnc34)c2OCCN2CCOCC2)c1 (stereo not drawn) [Example 157]: < 50 nM
- COc1c(C(C)Nc2ncnc3[nH]cnc23)cc(Cl)c(C)c1-c1cnc(F)c(C)c1 (stereo not drawn) [Example 87]: < 50 nM
- COc1c(C(C)Nc2ncnc3[nH]cnc23)cc(Cl)c(C)c1-c1ccc(Cl)c(F)c1 (stereo not drawn) [Example 92]: 100 to 250 nM
- Cc1c(Cl)cc(C(C)Nc2ncnc3[nH]cnc23)c(-c2cc(F)cc(F)c2)c1N1CCCC1=O (stereo not drawn) [Example 6, trifluoroacetate]: < 50 nM
- CCOc1c(C(C)Nc2ncnc3[nH]cnc23)cc(Cl)c(C#N)c1-c1ccc(C(=O)N(C)C)nc1 (stereo not drawn) [Example 179, bis(2,2,2-trifluoroacetate)]: < 50 nM

Proceed to the following item.
input: // lookup IC50 for Cc1c(Cl)cc(C(C)Nc2ncnc3[nH]cnc23)c(OCCN2CCOCC2)c1-c1cncc(S(C)(=O)=O)c1 (stereo not drawn) [Example 156]
output: < 50 nM
